pIC50: −log10 of the molar value.
Measurement record for TNIK kinase [amino acid sequence (1-367), Invitrogen] (Homo sapiens); quantity recorded: pIC50.

These recorded examples may help you get a feel for the data.
{"columns": ["compound", "pIC50"],
 "data": [
  ["CN1[C@@H]2CC[C@H]1CN(c1ccc(NC(=O)c3csc(-c4c(-c5ccc(F)cc5)ncn4C4COC4)n3)nc1)C2 [Compound 51]", "7.92 to 9.00"],
  ["CC(C)c1noc(-c2ccc(F)cc2)c1-c1nc(C(=O)Nc2ccc(C3COC3)cc2F)cs1 [Compound 31]", "6.82 to 7.92"],
  ["CC(C)n1cnc(-c2ccc(F)cc2)c1-c1nc(C(=O)Nc2ncc(N3CCN(C)CC3)cn2)cs1 [Compound 46]", "< 6.82"],
  ["[2H]C([2H])([2H])N1CC(c2ccc(NC(=O)c3c[nH]c(-c4c(-c5ccc(F)cc5)ncn4C4CCC4)n3)nc2)C1 [Compound 119]", "6.82 to 7.92"],
  ["CC(C)c1noc(-c2ccc(F)cc2)c1-c1nc(C(=O)Nc2ccc(C3COC3)cn2)cs1 [Compound 93]", "7.92 to 9.00"]
]}

Enquiry: Please state recorded pIC50 (tested on TNIK kinase [amino acid sequence (1-367), Invitrogen] (Homo sapiens)) of CCN1C2CC1CN(c1ccc(NC(=O)c3csc(-c4c(-c5ccc(F)cc5)ncn4C4CC(F)(F)C4)n3)nc1)C2 [Compound 84]
Sequence (Q9UKE5 1-367): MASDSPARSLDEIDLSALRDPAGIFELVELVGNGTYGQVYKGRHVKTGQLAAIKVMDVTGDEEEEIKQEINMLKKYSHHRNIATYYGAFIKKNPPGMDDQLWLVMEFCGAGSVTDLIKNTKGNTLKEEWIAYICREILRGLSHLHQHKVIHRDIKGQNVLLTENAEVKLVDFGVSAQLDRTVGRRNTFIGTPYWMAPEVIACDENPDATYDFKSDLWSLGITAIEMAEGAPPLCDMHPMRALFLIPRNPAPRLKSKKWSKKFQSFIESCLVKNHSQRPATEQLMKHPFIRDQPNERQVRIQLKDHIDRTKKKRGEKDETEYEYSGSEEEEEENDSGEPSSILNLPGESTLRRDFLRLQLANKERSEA
Return: 7.92 to 9.00

Enquiry: Please state recorded pIC50 (tested on TNIK kinase [amino acid sequence (1-367), Invitrogen] (Homo sapiens)) of O=C(Nc1ccc(N2CCC2)cn1)c1coc(-c2c(-c3ccc(F)cc3)ncn2C2COC2)n1 [Compound 79]
Return: 6.82 to 7.92

Enquiry: Please state recorded pIC50 (tested on TNIK kinase [amino acid sequence (1-367), Invitrogen] (Homo sapiens)) of CC(C)n1cnc(-c2ccc(F)cc2)c1-c1nc(C(=O)Nc2ccc(C3CCN(C)CC3)cn2)c[nH]1 [Compound 52]
Return: 7.92 to 9.00

###

pIC50: −log10 of the molar value.
Measurement record for TNIK kinase [amino acid sequence (1-367), Invitrogen] (Homo sapiens); quantity recorded: pIC50.

These recorded examples may help you get a feel for the data.
{"columns": ["molecule", "measured-target", "pIC50"],
 "data": [
  ["[2H]C([2H])([2H])N1CC(c2ccc(NC(=O)c3c[nH]c(-c4c(-c5ccc(F)cc5)ncn4C4CCC4)n3)c(F)c2)C1", "TNIK kinase [amino acid sequence (1-367), Invitrogen] (Homo sapiens)", "7.92 to 9.00"],
  ["CC(C)n1cnc(-c2ccc(F)cc2)c1-c1nc(C(=O)Nc2ccc(N3C[C@H]4CC[C@@H](C3)N4C)cn2)c[nH]1", "TNIK kinase [amino acid sequence (1-367), Invitrogen] (Homo sapiens)", "7.92 to 9.00"],
  ["CC(C)n1cnc(-c2ccc(F)cc2)c1-c1nc(C(=O)Nc2ccc3c(n2)CN(C)CC3)cs1", "TNIK kinase [amino acid sequence (1-367), Invitrogen] (Homo sapiens)", "7.92 to 9.00"]
]}

Enquiry: Entry under review: [2H]C([2H])([2H])N1CCN(c2ccc(NC(=O)c3c[nH]c(-c4c(-c5ccc(F)cc5)ncn4C([2H])(C)C)n3)c(F)c2)CC1 . Reported pIC50?
Return: 7.92 to 9.00

Enquiry: Entry under review: CC(C)n1cnc(-c2ccc(F)cc2)c1-c1nc(C(=O)Nc2ccc(C3CN(C)C3)cc2F)cs1 . Reported pIC50?
Return: 7.92 to 9.00

Enquiry: Entry under review: CC(C)n1cnc(-c2ccc(F)cc2)c1-c1nc(C(=O)Nc2ccc(N3CC4CC(C3)N4C)cn2)cs1 . Reported pIC50?
Return: 7.92 to 9.00

Enquiry: Entry under review: CN1C2CC1CN(c1ccc(NC(=O)c3csc(-c4c(-c5ccc(F)cc5)ncn4C4CC(F)(F)C4)n3)c(F)c1)C2 . Reported pIC50?
Return: 7.92 to 9.00
